molecular target: hALDH2 (recombinant human mitochondria ALDH) (Homo sapiens); assay: ALDH2 inhibition assay (NADH formation, formaldehyde substrate)
Sequence (P05091 18-517): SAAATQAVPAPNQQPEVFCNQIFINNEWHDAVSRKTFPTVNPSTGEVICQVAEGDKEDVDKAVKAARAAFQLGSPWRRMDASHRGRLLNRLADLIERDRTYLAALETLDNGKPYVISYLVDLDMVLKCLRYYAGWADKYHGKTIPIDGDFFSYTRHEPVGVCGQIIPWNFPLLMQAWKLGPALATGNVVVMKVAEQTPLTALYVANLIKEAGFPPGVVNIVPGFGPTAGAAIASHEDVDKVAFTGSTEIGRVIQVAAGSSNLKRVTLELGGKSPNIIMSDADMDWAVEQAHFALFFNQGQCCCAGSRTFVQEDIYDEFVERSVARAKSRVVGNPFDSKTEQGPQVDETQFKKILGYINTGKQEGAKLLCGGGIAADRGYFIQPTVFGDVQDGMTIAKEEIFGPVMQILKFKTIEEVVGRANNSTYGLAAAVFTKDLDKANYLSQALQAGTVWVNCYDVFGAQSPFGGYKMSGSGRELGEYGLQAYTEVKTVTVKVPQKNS
EXPERIMENTAL_ENDPOINT: IC50
Just so you know, I need the unit written after the number.

Reported IC50 for hALDH2 (recombinant human mitochondria ALDH) (Homo sapiens), given O=c1c(-c2ccc(O)cc2)coc2cc(OC[C@H](O)CNCc3cc(F)cc(F)c3)ccc12 ?
0.008 µM

Reported IC50 for hALDH2 (recombinant human mitochondria ALDH) (Homo sapiens), given O=c1c(-c2ccc(O)cc2)coc2cc(OCc3nnc(-c4cc(F)cc(C(F)(F)F)c4)o3)ccc12 ?
0.005 µM

Reported IC50 for hALDH2 (recombinant human mitochondria ALDH) (Homo sapiens), given O=c1c(-c2ccc(O)cc2)coc2cc(OCc3nc(-c4cccnc4)no3)ccc12 ?
0.032 µM

Reported IC50 for hALDH2 (recombinant human mitochondria ALDH) (Homo sapiens), given CS(=O)(=O)Nc1ccc(-c2coc3cc(OCc4nnc(-c5ccc(F)cc5)o4)ccc3c2=O)cc1 ?
0.276 µM

Reported IC50 for hALDH2 (recombinant human mitochondria ALDH) (Homo sapiens), given O=C(O)c1ccc(COc2ccc3c(=O)c(-c4ccc(O)cc4)coc3c2)cc1 ?
0.17 µM

Reported IC50 for hALDH2 (recombinant human mitochondria ALDH) (Homo sapiens), given O=c1c(-c2ccc(O)cc2)coc2cc(OC[C@H](O)Cc3ccccc3)ccc12 ?
0.014 µM

Reported IC50 for hALDH2 (recombinant human mitochondria ALDH) (Homo sapiens), given O=c1c(-c2ccc(O)cc2)coc2cc(OCc3coc(-c4cccc(C(F)(F)F)c4)n3)ccc12 ?
0.003 µM

Reported IC50 for hALDH2 (recombinant human mitochondria ALDH) (Homo sapiens), given O=c1c(-c2ccc(O)cc2)coc2cc(OCc3noc(-c4cc(C(F)(F)F)ccc4C(F)(F)F)n3)ccc12 ?
0.02 µM

Reported IC50 for hALDH2 (recombinant human mitochondria ALDH) (Homo sapiens), given O=c1c(-c2ccc(O)cc2)coc2cc(OC[C@H](O)CNCc3cccc(C(F)(F)F)c3)ccc12 ?
0.016 µM

Reported IC50 for hALDH2 (recombinant human mitochondria ALDH) (Homo sapiens), given O=c1c(-c2ccc(O)cc2)coc2cc(OCCOc3ccc(Cl)cc3)ccc12 ?
0.022 µM

Reported IC50 for hALDH2 (recombinant human mitochondria ALDH) (Homo sapiens), given Nc1cccc(-c2nnc(COc3ccc4c(=O)c(-c5ccc(O)cc5)coc4c3)o2)c1 ?
0.011 µM

Reported IC50 for hALDH2 (recombinant human mitochondria ALDH) (Homo sapiens), given C[C@@H](NC(=O)COc1ccc2c(=O)c(-c3ccc(O)cc3)coc2c1)c1ccc(F)cc1 ?
0.006 µM

Reported IC50 for hALDH2 (recombinant human mitochondria ALDH) (Homo sapiens), given O=c1c(-c2ccc(O)cc2)coc2cc(OCc3noc(-c4ccc(F)c(C(F)(F)F)c4)n3)ccc12 ?
0.1 µM

Reported IC50 for hALDH2 (recombinant human mitochondria ALDH) (Homo sapiens), given O=c1c(-c2ccc(O)cc2)coc2cc(OCCc3cccc(C(F)(F)F)c3)ccc12 ?
0.67 µM

Reported IC50 for hALDH2 (recombinant human mitochondria ALDH) (Homo sapiens), given O=c1c(-c2ccc(O)cc2)coc2cc(OCc3cnc(-c4ccc(C(F)(F)F)cc4)s3)ccc12 ?
0.122 µM

====

target: hMAO-B (Homo sapiens, UniProt P27338); construct: purchased Sigma M7441; experiment: MAO-B inhibition assay (Amplex Red, horseradish peroxidase-coupled); assay type: biochemical; conditions: at 10 μM; read-out: hMAO-B inhibition (IC50 hMAO-B)
Sequence (P27338 whole entry): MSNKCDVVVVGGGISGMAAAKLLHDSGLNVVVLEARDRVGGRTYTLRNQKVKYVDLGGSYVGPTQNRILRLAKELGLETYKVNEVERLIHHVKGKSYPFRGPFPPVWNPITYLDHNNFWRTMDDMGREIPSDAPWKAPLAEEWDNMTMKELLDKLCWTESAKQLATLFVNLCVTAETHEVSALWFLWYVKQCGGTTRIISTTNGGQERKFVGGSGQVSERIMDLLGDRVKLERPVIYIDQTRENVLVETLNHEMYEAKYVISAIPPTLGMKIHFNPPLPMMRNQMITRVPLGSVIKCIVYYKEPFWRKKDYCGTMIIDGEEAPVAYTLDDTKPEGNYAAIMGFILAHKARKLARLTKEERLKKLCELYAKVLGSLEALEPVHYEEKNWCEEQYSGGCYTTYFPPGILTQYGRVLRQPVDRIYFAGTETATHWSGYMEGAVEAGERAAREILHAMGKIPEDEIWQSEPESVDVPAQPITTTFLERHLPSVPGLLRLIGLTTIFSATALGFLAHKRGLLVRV
EXPERIMENTAL_ENDPOINT: inhibition at 10 µM (%)
Answer format: numeric, % implied, no suffix.

Value lookup for inhibition at 10 µM; key = Cc1nc(-c2ccc(C(F)(F)F)cc2)sc1COc1ccc2c(=O)c(-c3ccc(NS(C)(=O)=O)cc3)coc2c1 [PT-66]
25

Value lookup for inhibition at 10 µM; key = O=c1c(-c2ccc(O)cc2)coc2cc(OC[C@H](O)Cc3ccccc3)ccc12 [PT-109]
26

Value lookup for inhibition at 10 µM; key = Cc1nc(-c2ccc(C(F)(F)F)cc2)sc1COc1ccc2c(=O)c(-c3ccc(C#N)cc3)coc2c1 [PT-65]
25

Value lookup for inhibition at 10 µM; key = O=c1c(-c2ccc(O)cc2)coc2cc(OCCc3ccccc3)ccc12 [PT-87]
21

Value lookup for inhibition at 10 µM; key = O=c1c(-c2ccc(O)cc2)coc2cc(OC[C@H](O)CNCc3cc(F)cc(F)c3)ccc12 [PT-55]
14
